- measurementNotes: Plasma stability profiling method 1 (35% plasma, MALDI-TOF, qualitative)
- Assay type: in vitro ADME, rat
- cond: 35% rat plasma, 37 deg C, method 1, comparative estimate
Numbered stars: 1 amine (or outer) side, 2 acyl side, 3 side chain; on linkers, the order of the positions; unused ones are H or OH. Bridge positions count the residues as written; N and C are the ends. Square brackets hold non-standard residues; d marks the D form. Peptide text beside a SMILES is read from it. TBMB = c1c(C[*:1])cc(C[*:3])cc1C[*:2]; Hyp = O=C(O)[C@@H]1C[C@@H](O)CN1; 4Pal = N[C@@H](Cc1ccncc1)C(=O)O
Kindly supply the reported Observable in rat plasma, for days values for the records listed here.
# value in days; strip the unit string

Prompt: Any idea what its Observable in rat plasma, for days is? The molecule is CC(=O)N[C@H]1CSCc2cc3cc(c2)CSC[C@H](NC(=O)[C@H](CCCNC(=N)N)NC(=O)[C@H](C)NC(=O)[C@@H]2CCCN2C(=O)[C@H](Cc2ccncc2)NC(=O)[C@H](CO)NC1=O)C(=O)N[C@@H](CC(C)C)C(=O)N[C@@H](Cc1c[nH]cn1)C(=O)N[C@@H](CCC(N)=O)C(=O)N[C@@H](CC(=O)O)C(=O)N[C@@H](CC(C)C)C(=O)N[C@H](C(N)=O)CSC3 [Ac-(06-34-18) 4Pal2] (Ac-CS[4Pal]PARCLHQDLC-NH2; linker 1-7-13 via TBMB)
Response: 2

Prompt: Any idea what its Observable in rat plasma, for days is? The molecule is CC(=O)N[C@H]1CSCc2cc3cc(c2)CSC[C@H](NC(=O)[C@H](CCCNC(=N)N)NC(=O)[C@H](C)NC(=O)[C@@H]2C[C@@H](O)CN2C(=O)[C@H](Cc2c[nH]c4ccccc24)NC(=O)[C@H](CO)NC1=O)C(=O)N[C@@H](CC(C)C)C(=O)N[C@@H](Cc1c[nH]cn1)C(=O)N[C@@H](CCC(N)=O)C(=O)N[C@@H](CC(=O)O)C(=O)N[C@@H](CC(C)C)C(=O)N[C@H](C(N)=O)CSC3 [Ac-(06-34-18) HyP3] (Ac-CSW[Hyp]ARCLHQDLC-NH2; linker 1-7-13 via TBMB)
Response: 2

====

- measurementNotes: Plasma stability profiling method 1 (35% plasma, MALDI-TOF, qualitative)
- Format: in vitro ADME, rat
- cond: 35% rat plasma, 37 deg C, method 1, comparative estimate
Numbered stars: 1 amine (or outer) side, 2 acyl side, 3 side chain; on linkers, the order of the positions; unused ones are H or OH. Bridge positions count the residues as written; N and C are the ends. Square brackets hold non-standard residues; d marks the D form. Peptide text beside a SMILES is read from it. Pro(trans-4-Ph) = O=C(O)[C@@H]1C[C@@H](c2ccccc2)CN1; Dip = N[C@H](C(=O)O)C(c1ccccc1)c1ccccc1; TBMB = c1c(C[*:1])cc(C[*:3])cc1C[*:2]; Aib = CC(C)(N)C(=O)O
readout: Observable in rat plasma, for days (days)
# value in days; strip the unit string

Prompt: Any idea what its Observable in rat plasma, for days is? The molecule is CC(=O)N[C@H]1CSCc2cc3cc(c2)CSC[C@H](NC(=O)[C@H](CCCNC(=N)N)NC(=O)[C@H](C)NC(=O)[C@@H]2C[C@@H](c4ccccc4)CN2C(=O)[C@H](Cc2c[nH]c4ccccc24)NC(=O)[C@H](CO)NC1=O)C(=O)N[C@@H](CC(C)C)C(=O)N[C@@H](Cc1c[nH]cn1)C(=O)N[C@@H](CCC(N)=O)C(=O)N[C@@H](CC(=O)O)C(=O)N[C@@H](CC(C)C)C(=O)N[C@H](C(N)=O)CSC3 [Ac-(06-34-18) 4Phenyl Pro3] (Ac-CSW[Pro(trans-4-Ph)]ARCLHQDLC-NH2; linker 1-7-13 via TBMB)
Response: 2

Prompt: Any idea what its Observable in rat plasma, for days is? The molecule is CC(=O)N[C@H]1CSCc2cc3cc(c2)CSC[C@H](NC(=O)[C@H](CCCNC(=N)N)NC(=O)[C@H](C)NC(=O)[C@@H]2CCCN2C(=O)[C@H](C(c2ccccc2)c2ccccc2)NC(=O)[C@H](CO)NC1=O)C(=O)N[C@@H](CC(C)C)C(=O)N[C@@H](Cc1c[nH]cn1)C(=O)N[C@@H](CCC(N)=O)C(=O)N[C@@H](CC(=O)O)C(=O)N[C@@H](CC(C)C)C(=O)N[C@H](C(N)=O)CSC3 [Ac-(06-34-18) 3,3-DPA2] (Ac-CS[Dip]PARCLHQDLC-NH2; linker 1-7-13 via TBMB)
Response: 2

Prompt: Any idea what its Observable in rat plasma, for days is? The molecule is CC(=O)N[C@H]1CSCc2cc3cc(c2)CSC[C@H](NC(=O)[C@H](CCCNC(=N)N)NC(=O)C(C)(C)NC(=O)[C@@H]2CCCN2C(=O)[C@H](Cc2c[nH]c4ccccc24)NC(=O)[C@H](CO)NC1=O)C(=O)N[C@@H](CC(C)C)C(=O)N[C@@H](Cc1c[nH]cn1)C(=O)N[C@@H](CCC(N)=O)C(=O)N[C@@H](CC(=O)O)C(=O)N[C@@H](CC(C)C)C(=O)N[C@H](C(N)=O)CSC3 [Ac-(06-34-18) Aib4] (Ac-CSWP[Aib]RCLHQDLC-NH2; linker 1-7-13 via TBMB)
Response: 7

Prompt: Any idea what its Observable in rat plasma, for days is? The molecule is CC(=O)N[C@H]1CSCc2cc3cc(c2)CSC[C@H](NC(=O)[C@H](CCCNC(=N)N)NC(=O)[C@H](Cc2ccc(O)cc2)NC(=O)[C@@H]2CCCN2C(=O)[C@H](Cc2ccccc2)NC(=O)[C@H](CO)NC1=O)C(=O)N[C@@H](CC(C)C)C(=O)N[C@@H](Cc1c[nH]cn1)C(=O)N[C@@H](CCC(N)=O)C(=O)N[C@@H](CC(=O)O)C(=O)N[C@@H](CC(C)C)C(=O)N[C@H](C(N)=O)CSC3 [Ac-(06-34-18) FPYR] (Ac-CSFPYRCLHQDLC-NH2; linker 1-7-13 via TBMB)
Response: 2
